system: Protein arginine N-methyltransferase 1 (Homo sapiens) (UniProt Q99873)
Sequence (Q99873 whole entry, looked up): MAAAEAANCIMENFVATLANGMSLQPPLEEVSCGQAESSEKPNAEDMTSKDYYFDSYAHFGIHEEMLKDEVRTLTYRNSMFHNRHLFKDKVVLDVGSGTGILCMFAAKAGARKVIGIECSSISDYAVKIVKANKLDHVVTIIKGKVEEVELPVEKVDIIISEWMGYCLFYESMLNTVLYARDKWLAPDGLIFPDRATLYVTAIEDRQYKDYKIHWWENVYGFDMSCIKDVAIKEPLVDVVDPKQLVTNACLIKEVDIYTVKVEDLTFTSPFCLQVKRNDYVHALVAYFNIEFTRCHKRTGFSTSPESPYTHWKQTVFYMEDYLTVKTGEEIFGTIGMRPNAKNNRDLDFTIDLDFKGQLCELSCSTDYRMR
assay overview: human PRMT1 activity-probe blockers – biochemical, fluorescence polarization, primary screen (AID 652257)
condition label: recombinant PRMT1, activity-based probe fluorescence polarization; at 2.79 µM
Hit rate of the full screen: of about 370,000 compounds, about 4,800 (1.3%) were called active.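 The calls were made as follows: active = inhibition above about 21% made by adding two undisclosed values (limit read from the data); inactive = the rest.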 Many of the other results were omitted from the sample, so actives are more common in it than they were.
Just give me one of these, please: active, inactive

# example entries with known answers
compound	category label
CC(C)(C)OC(=O)NCc1cc(F)ccc1/C=C/S(=O)(=O)NCCc1ccccc1	inactive
COC(=O)C[C@@H]1CC[C@@H]2[C@H](COc3ccc(NC(=O)c4cccc(F)c4)cc3C(=O)N2C)O1	inactive
COCCN1C(=O)C(=O)/C(=C(/O)c2ccc(S(=O)(=O)N3CCOCC3)cc2)C1c1ccc(OC)c(OC)c1 (stereo not drawn)	inactive
O=C(O)c1ccc(/C=C2\SC(=S)N(NC(=O)c3ccc(Br)cc3)C2=O)cc1	active
Cc1c(C(C)CCCO)oc(=O)c2c1Oc1c(C)c(C(C)C[C@@H](C)O)oc(=O)c1C2 (stereo partly drawn)	inactive

Data request: For this compound, state the assay outcome: COC(=O)[C@H](C(C)C)N(CCCc1cn(Cc2ccccc2)nn1)S(=O)(=O)c1ccc(F)cc1Br
Data returned: inactive

Data request: For this compound, state the assay outcome: Cc1ccc(Cn2cc(CN3[C@@H](C)COc4cc(Br)ccc4S3(=O)=O)nn2)cc1
Data returned: inactive

Data request: For this compound, state the assay outcome: C#CCNC(=O)C[C@H]1C[C@@]2(C(=O)OC)C(=C[C@H](C(C)C)O[C@@H]2C2CC2)N(Cc2ccco2)C1=O
Data returned: inactive

* * *

Quick list: inhibition per entry.
system: Protein arginine N-methyltransferase 1 (Homo sapiens)
assay overview: human PRMT1 activity-probe blockers – biochemical, fluorescence polarization, primary screen (AID 652257)
condition label: recombinant PRMT1, activity-based probe fluorescence polarization; at 2.79 µM; stronger effect = higher value
In all, about 370,000 compounds went through this assay and about 4,800 (1.3%) were called active. For the sample, actives were picked, then their nearest neighbours and some compounds at random.
Provide the reading as a plain figure in %.

Recorded results for 5 molecules are shown here.
molecule	system	inhibition / %
COc1cc(/C=C/C(=O)n2cnc3ccccc32)cc(OC)c1OC	Protein arginine N-methyltransferase 1 (Homo sapiens)	5.15
O=C(O)c1ccccc1CSc1nc2ccccc2s1	Protein arginine N-methyltransferase 1 (Homo sapiens)	40.8
CCOC(=O)c1cccc(NC(=O)CN(C)S(=O)(=O)c2ccc(-c3cocn3)s2)c1	Protein arginine N-methyltransferase 1 (Homo sapiens)	-6.43
COc1ccc(-n2c(COc3ccc(C)cc3)nnc2SCC(=O)Nc2ccc(Oc3ccccc3)cc2)cc1	Protein arginine N-methyltransferase 1 (Homo sapiens)	-3.87
CCOc1ccc(NC(=O)CSc2nc3c(c(=O)n2-c2ccccc2OC)SCC3)cc1	Protein arginine N-methyltransferase 1 (Homo sapiens)	5.66

// CC1CN(/C=C/C(=O)C(F)(F)F)CC(C)O1 (stereo unspecified) : inhibition value = -0.81

// O=C(O)C1CCN(S(=O)(=O)N2CCOCC2)CC1 : inhibition value = 0.67

// CC(C)[C@@H](C)/C=C/[C@@H](C)[C@H]1CC[C@@H]2[C@]1(C)CCC1[C@]23C=C[C@]2(C[C@@H](O)CC[C@]12C)N(c1ccc([N+](=O)[O-])cn1)O3 (stereo partly specified) : inhibition value = 1.5

// CNC(=S)NNC(=O)c1ccc(N(C)C)cc1 : inhibition value = -0.78

// CN(C)S(=O)(=O)c1ccc(NC(=O)COC(=O)c2n[nH]c3ccccc23)cc1 : inhibition value = -3.56

meta.source: PubChem BioAssay AID652257
